EC50 values, listed per item
Measured on: Beta-1 adrenergic receptor (Homo sapiens)
Sequence (P08588 whole entry): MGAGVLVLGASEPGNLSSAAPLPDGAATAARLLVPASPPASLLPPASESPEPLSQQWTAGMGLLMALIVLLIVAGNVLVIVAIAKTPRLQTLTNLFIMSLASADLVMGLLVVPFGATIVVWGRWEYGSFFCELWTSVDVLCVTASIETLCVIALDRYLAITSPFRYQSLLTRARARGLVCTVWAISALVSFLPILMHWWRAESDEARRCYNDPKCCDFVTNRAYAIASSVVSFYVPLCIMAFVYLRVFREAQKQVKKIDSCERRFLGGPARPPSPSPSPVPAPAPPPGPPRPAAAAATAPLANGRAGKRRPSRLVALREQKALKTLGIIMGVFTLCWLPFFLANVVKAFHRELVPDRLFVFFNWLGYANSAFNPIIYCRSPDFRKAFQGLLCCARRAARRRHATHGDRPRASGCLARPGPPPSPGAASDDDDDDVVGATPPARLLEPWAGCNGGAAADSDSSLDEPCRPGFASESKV
Assay procedure: In vitro activity to increase cAMP levels in Chinese hamster ovary (CHO) cells expressing the cloned human beta 1 Adrenergic receptor
Format: cell-based
Answer in nM, number only, no unit symbol.

{"columns": ["Cpd smiles", "Measured on", "EC50, nM"],
 "data": [
  ["CS(=O)(=O)Nc1cc([C@@H](O)CNC2CCN(c3ccc(C(=O)O)cc3)CC2)ccc1O", "Beta-1 adrenergic receptor (Homo sapiens)", 48700],
  ["CCCCCCNC(=O)Nc1ccc(S(=O)(=O)Nc2ccc(CCNC[C@H](O)COc3ccc(O)cc3)cc2)cc1", "Beta-1 adrenergic receptor (Homo sapiens)", 330]
]}

// below: EC50 requested for another compound
Item: CCCCN(c1ccc(N2CCC(NC[C@H](O)c3ccc(O)c(NS(C)(=O)=O)c3)CC2)cc1)S(=O)(=O)CC(=O)O | EC50: 2000
